Each item that follows carries a reported Inhibition 1.
# testedOn: cloned human or rodent CNS receptors, channels, and transporters (PDSP panel) (Homo sapiens)
# Construct: expressed in transfected cells
# assayDetails: PDSP GPCR panel primary binding assays at 10 μM
# condition: M1; primary assay, replicate 1
The reply should contain only the number, in %.

Query: Give its Inhibition 1 value. Item: CNc1nc(C)nc(N[C@H]2CCC[C@@H](C(=O)NCc3ccc(C#N)cc3C(F)(F)F)C2)n1 [UNC10302679A, GSK2256294A]
Result: 6.11

Query: Give its Inhibition 1 value. Item: O=c1oc2ccccc2cc1-c1cn2cc(Cc3ccc(F)cc3)sc2n1 [UNC10302680A, iMDK]
Result: 16.84

Query: Give its Inhibition 1 value. Item: O=C(NC1CC1)C(=O)C(Cc1ccccc1)NC(=O)[C@H]1CCC(=O)N1Cc1ccccc1 (some centres unmarked) [UNC10302676A, ABT-957 (Alicapistat)]
Result: 12.89

Query: Give its Inhibition 1 value. Item: CCC(=O)N1CCC(NC(=O)Nc2ccc(OC(F)(F)F)cc2)CC1 [UNC10302681A, TPPU]
Result: 4.61

Query: Give its Inhibition 1 value. Item: CC(=O)N1CCC(NC(=O)NC23CC4CC(CC(C4)C2)C3)CC1 [UNC10302683A, AR9281]
Result: 23.24

###

# testedOn: cloned human or rodent CNS receptors, channels, and transporters (PDSP panel) (Homo sapiens)
# Construct: expressed in transfected cells
# assayDetails: PDSP GPCR panel primary binding assays at 10 μM
# condition: 5-HT1B; primary assay, replicate 3
measuredQuantity: Inhibition 3 (%)
The reply should contain only the number, in %.

In the examples that follow, each entry is paired with its recorded Inhibition 3.
compound="CCC(=O)N1CCC(NC(=O)Nc2ccc(OC(F)(F)F)cc2)CC1 [UNC10302681A, TPPU]" unitofmeasure=% measuredvalue=-3.14
compound="CC(=O)N1CCC(NC(=O)NC23CC4CC(CC(C4)C2)C3)CC1 [UNC10302683A, AR9281]" unitofmeasure=% measuredvalue=-10.42
compound="O=C(NC1CC1)C(=O)C(Cc1ccccc1)NC(=O)[C@H]1CCC(=O)N1Cc1ccccc1 (stereo partly shown) [UNC10302676A, ABT-957 (Alicapistat)]" unitofmeasure=% measuredvalue=8.83

Query: Give its Inhibition 3 value. Item: CNc1nc(C)nc(N[C@H]2CCC[C@@H](C(=O)NCc3ccc(C#N)cc3C(F)(F)F)C2)n1 [UNC10302679A, GSK2256294A]
Result: 0.2

###

# testedOn: cloned human or rodent CNS receptors, channels, and transporters (PDSP panel) (Homo sapiens, UniProt P21728)
# Construct: expressed in transfected cells
# Sequence (P21728 whole entry): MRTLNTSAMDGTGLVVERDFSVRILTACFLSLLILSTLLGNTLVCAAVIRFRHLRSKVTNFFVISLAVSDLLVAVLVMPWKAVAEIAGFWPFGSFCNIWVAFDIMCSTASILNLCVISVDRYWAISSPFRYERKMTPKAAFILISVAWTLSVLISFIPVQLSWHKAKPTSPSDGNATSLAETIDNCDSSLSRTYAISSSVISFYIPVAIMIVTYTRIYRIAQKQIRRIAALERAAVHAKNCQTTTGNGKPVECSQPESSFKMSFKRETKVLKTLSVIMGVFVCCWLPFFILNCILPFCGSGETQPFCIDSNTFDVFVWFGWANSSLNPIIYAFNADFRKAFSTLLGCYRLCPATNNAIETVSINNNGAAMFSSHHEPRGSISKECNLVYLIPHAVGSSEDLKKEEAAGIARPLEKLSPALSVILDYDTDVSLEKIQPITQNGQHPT
# assayDetails: PDSP GPCR panel primary binding assays at 10 μM
# condition: D1; primary assay, replicate 3
measuredQuantity: Inhibition 3

compound="CNc1nc(C)nc(N[C@H]2CCC[C@@H](C(=O)NCc3ccc(C#N)cc3C(F)(F)F)C2)n1 [UNC10302679A, GSK2256294A]" measuredquantity="Inhibition 3" measuredvalue=10.77%
compound="CC(=O)N1CCC(NC(=O)NC23CC4CC(CC(C4)C2)C3)CC1 [UNC10302683A, AR9281]" measuredquantity="Inhibition 3" measuredvalue=-32.3%
compound="CCC(=O)N1CCC(NC(=O)Nc2ccc(OC(F)(F)F)cc2)CC1 [UNC10302681A, TPPU]" measuredquantity="Inhibition 3" measuredvalue=-3.8%

Could you now look at the following compound, please?
Query: Give its Inhibition 3 value. Item: O=C(NC1CC1)C(=O)C(Cc1ccccc1)NC(=O)[C@H]1CCC(=O)N1Cc1ccccc1 (stereo partly shown) [UNC10302676A, ABT-957 (Alicapistat)]
Result: -21.45%
